test.method.notes: Determination of lipid-water partition coefficient
Format: physicochemical
test.context: n-octyl alcohol / pH 7.4 phosphate buffer; pH 7.4 phosphate buffer / n-octyl alcohol, 3 hours at 37° C.; read-out: logP (lipid-water partition coefficient)
reported.metric: logP at 3 h
Give bare numbers.

Q) # return recorded logP at 3 h for input Cc1ccc(Sc2ccccc2N2CCNCC2)c(C)c1 [Vortioxetine]
A) 2.1

====

test.method.notes: Test of brain concentration and plasma concentration
Type: in vivo, KM mice
test.context: male, KM, mouse, brain; 1 hour after intravenous injection; equal moles: vortioxetine 20 mg/kg, Compound 1 23.6 mg/kg; read-out: Concentration in brain tissue
reported.metric: concentration at 1 h (ng/g)
Give bare numbers, in ng/g.

Q) # return recorded concentration at 1 h for input `Cc1ccc(Sc2ccccc2N2CCNCC2)c(C)c1`
A) 15400

====

test.method.notes: Test of brain concentration and plasma concentration
Format: in vivo, KM mice
test.context: male, KM, mouse, plasma; 2 hours after intravenous injection; vortioxetine 20 mg/kg, Compound 1 23.6 mg/kg; read-out: Blood drug level
reported.metric: concentration at 2 h (ng/mL)
Numbers only, in ng/mL.

Q) # return recorded concentration at 2 h for input `Cc1ccc(Sc2ccccc2N2CCNCC2)c(C)c1`
A) 167

====

Can you tell me pIC50 for the items I'm about to list?
experimental.system: UniProtKB P31645
Sequence (P31645 whole entry): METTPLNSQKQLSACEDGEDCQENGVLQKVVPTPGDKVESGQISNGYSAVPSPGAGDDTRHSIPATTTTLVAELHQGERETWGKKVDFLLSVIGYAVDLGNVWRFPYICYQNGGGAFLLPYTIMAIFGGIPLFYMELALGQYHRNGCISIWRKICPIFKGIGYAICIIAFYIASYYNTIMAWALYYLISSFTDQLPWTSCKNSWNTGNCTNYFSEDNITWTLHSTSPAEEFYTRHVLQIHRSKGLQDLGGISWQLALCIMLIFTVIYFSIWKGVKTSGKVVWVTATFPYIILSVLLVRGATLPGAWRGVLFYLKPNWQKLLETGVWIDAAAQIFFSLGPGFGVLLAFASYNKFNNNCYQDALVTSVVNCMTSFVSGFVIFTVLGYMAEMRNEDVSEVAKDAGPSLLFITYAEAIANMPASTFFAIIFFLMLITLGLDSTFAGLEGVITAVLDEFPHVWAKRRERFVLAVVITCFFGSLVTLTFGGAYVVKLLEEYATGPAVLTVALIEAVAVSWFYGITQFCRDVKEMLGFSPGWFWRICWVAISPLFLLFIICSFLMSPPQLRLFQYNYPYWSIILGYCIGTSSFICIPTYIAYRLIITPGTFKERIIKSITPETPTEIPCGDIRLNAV
test.method.notes: [3H]5-hydroxytryptamine (5-HT) reuptake inhibition in CHO cells transfected with pcDNA3.1-SLC6A4-His
test.context: 25 nM [3H]5-hydroxytryptamine, 30 min
Answers are plain numbers, as −log10 of the molar value.

For every item below, please supply its pIC50.
1. Cc1cc(C(F)(F)F)ccc1Sc1ccccc1N1CCNCC1 [Compound 1]
2. Cc1ccc(Sc2ccccc2N2CCNCC2)c(C)c1 [Vortioxetine]

A)
6.64
6.57

====

test.method.notes: Test of brain concentration and plasma concentration
Assay type: in vivo, KM mice
test.context: male, KM, mouse, brain; 2 hours after intravenous injection; vortioxetine 20 mg/kg, Compound 1 23.6 mg/kg; read-out: Concentration in brain tissue
reported.metric: concentration at 2 h (ng/g)
Give bare numbers, in ng/g.

Q) # return recorded concentration at 2 h for input `Cc1ccc(Sc2ccccc2N2CCNCC2)c(C)c1`
A) 7490
